The measurements presented in this section are drawn from ChEMBL document CHEMBL5360618.

Property: IC50; scope: individual compounds
# target.or.system: IL17-RE-IL-17C (Homo sapiens, UniProt Q8NFR9+Q9P0M4)
# Sequence (Q9P0M4 whole entry): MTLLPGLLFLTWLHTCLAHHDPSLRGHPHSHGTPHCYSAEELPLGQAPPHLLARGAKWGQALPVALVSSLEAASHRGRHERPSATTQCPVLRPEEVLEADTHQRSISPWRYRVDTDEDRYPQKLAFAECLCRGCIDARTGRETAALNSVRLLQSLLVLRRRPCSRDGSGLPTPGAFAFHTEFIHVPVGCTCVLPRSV
# Sequence (Q8NFR9 whole entry): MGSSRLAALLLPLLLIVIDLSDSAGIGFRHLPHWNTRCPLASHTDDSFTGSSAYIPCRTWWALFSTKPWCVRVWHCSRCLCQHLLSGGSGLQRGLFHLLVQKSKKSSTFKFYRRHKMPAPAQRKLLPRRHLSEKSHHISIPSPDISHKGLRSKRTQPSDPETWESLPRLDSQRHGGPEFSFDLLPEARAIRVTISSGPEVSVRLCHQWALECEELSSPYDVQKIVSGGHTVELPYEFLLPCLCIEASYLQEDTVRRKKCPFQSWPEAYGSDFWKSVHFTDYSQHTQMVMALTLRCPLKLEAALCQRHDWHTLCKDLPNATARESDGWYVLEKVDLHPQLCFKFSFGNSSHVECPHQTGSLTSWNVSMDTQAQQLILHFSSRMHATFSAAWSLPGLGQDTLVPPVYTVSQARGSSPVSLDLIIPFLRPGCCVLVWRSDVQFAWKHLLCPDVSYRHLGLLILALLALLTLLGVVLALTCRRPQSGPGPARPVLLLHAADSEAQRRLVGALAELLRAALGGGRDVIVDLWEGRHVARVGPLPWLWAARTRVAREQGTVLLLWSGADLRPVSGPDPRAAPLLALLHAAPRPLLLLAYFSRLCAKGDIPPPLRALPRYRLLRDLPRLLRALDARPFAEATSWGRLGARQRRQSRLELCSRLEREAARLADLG
# method: Inhibition of IL-17C/IL-17RE interaction (unknown origin) incubated for 1.5 hrs by ELISA method
Positions of bridges follow the written chain, without caps; N, C: chain ends. Residues, ends and D or L forms follow the SMILES beside them.

# compound, target.or.system, IC50
rows = [
    ("CC(C)C[C@@H]1NC(=O)[C@H](CC(C)C)NC(=O)[C@H](CCCCN)NC(=O)[C@H](CO)NC(=O)[C@H](CC(C)C)NC(=O)[C@H](Cc2c[nH]c3ccccc23)NC(=O)[C@H](CC(N)=O)NC(=O)[C@H](CC(=O)O)NC(=O)[C@H](Cc2ccccc2)NC(=O)[C@H](Cc2c[nH]cn2)NC(=O)[C@H](Cc2ccc(O)cc2)NC(=O)CSC[C@@H](C(=O)NCC(N)=O)NC(=O)[C@H](CC(=O)O)NC1=O ({CH2CO}-YHFDNWLSKLLDCG-NH2; thioether N-13)", "IL17-RE-IL-17C (Homo sapiens, UniProt Q8NFR9+Q9P0M4)", "> 30 µM"),
    ("CC[C@H](C)[C@@H]1NC(=O)[C@H](CC(C)C)NC(=O)[C@H](C)NC(=O)[C@H](CC(C)C)NC(=O)[C@H](Cc2c[nH]c3ccccc23)NC(=O)[C@H](CC(N)=O)NC(=O)[C@H](CC(=O)O)NC(=O)[C@H](Cc2ccccc2)NC(=O)[C@H](Cc2c[nH]cn2)NC(=O)[C@H](Cc2ccc(O)cc2)NC(=O)CSC[C@@H](C(=O)NCC(N)=O)NC(=O)[C@H](CC(C)C)NC1=O ({CH2CO}-YHFDNWLALILCG-NH2; thioether N-12)", "IL17-RE-IL-17C (Homo sapiens, UniProt Q8NFR9+Q9P0M4)", "> 30 µM"),
    ("CC(C)C[C@@H]1NC(=O)[C@H](CO)NC(=O)[C@H](Cc2ccc(O)cc2)NC(=O)[C@H](Cc2ccc(O)cc2)NC(=O)[C@H](Cc2ccc(O)cc2)NC(=O)[C@H](C(C)C)NC(=O)[C@H](Cc2c[nH]cn2)NC(=O)[C@H](Cc2ccc(O)cc2)NC(=O)CSC[C@@H](C(=O)NCC(N)=O)NC(=O)CNC(=O)[C@H](CC(C)C)NC(=O)[C@@H]2CCCN2C(=O)CNC(=O)[C@H](Cc2ccc(O)cc2)NC1=O ({CH2CO}-YHVYYYSLYGPLGCG-NH2; thioether N-14)", "IL17-RE-IL-17C (Homo sapiens, UniProt Q8NFR9+Q9P0M4)", "0.009 µM"),
]

---

Property: IC50; scope: individual compounds
# target.or.system: IL17-RE-IL-17C (Homo sapiens, UniProt Q8NFR9+Q9P0M4)
# method: Inhibition of IL-17C/IL-17RE interaction (unknown origin) incubated for 1.5 hrs by ELISA method
# Assay type: protein-complex assay
Positions of bridges follow the written chain, without caps; N, C: chain ends. Residues, ends and D or L forms follow the SMILES beside them.

# compound, modifier.sign, IC50 / nM
data = [
    ("CC[C@H](C)[C@@H]1NC(=O)[C@H](CCCNC(=N)N)NC(=O)[C@H](Cc2ccc(O)cc2)NC(=O)[C@H](Cc2ccc(O)cc2)NC(=O)[C@H](Cc2c[nH]cn2)NC(=O)[C@H](Cc2c[nH]cn2)NC(=O)[C@H](Cc2ccc(O)cc2)NC(=O)CSC[C@@H](C(=O)NCC(N)=O)NC(=O)[C@H](C)NC(=O)[C@H](CC(C)C)NC(=O)[C@H](CCC(=O)O)NC(=O)CNC(=O)[C@H](Cc2ccc(O)cc2)NC(=O)[C@H](CC(C)C)NC1=O ({CH2CO}-YHHYYRILYGELACG-NH2; thioether N-14)", "=", 865),
    ("CC[C@H](C)[C@@H]1NC(=O)[C@H](Cc2c[nH]cn2)NC(=O)[C@H](Cc2ccc(O)cc2)NC(=O)CSC[C@@H](C(=O)NCC(N)=O)NC(=O)CNC(=O)[C@H](CC(C)C)NC(=O)[C@H](CO)NC(=O)CNC(=O)[C@H](Cc2ccc(O)cc2)NC(=O)[C@H](CC(C)C)NC(=O)[C@H](CO)NC(=O)[C@H](CO)NC(=O)[C@H](Cc2ccc(O)cc2)NC(=O)[C@H](Cc2ccc(O)cc2)NC1=O ({CH2CO}-YHIYYSSLYGSLGCG-NH2; thioether N-14)", "=", 7),
    ("CC[C@H](C)[C@@H]1NC(=O)[C@H](Cc2c[nH]cn2)NC(=O)[C@H](Cc2ccc(O)cc2)NC(=O)CSC[C@@H](C(=O)NCC(N)=O)NC(=O)CNC(=O)[C@H](CC(C)C)NC(=O)[C@H](CO)NC(=O)CNC(=O)[C@H](Cc2ccc(O)cc2)NC(=O)[C@H](CC(C)C)NC(=O)[C@H]([C@@H](C)CC)NC(=O)[C@H](CCCNC(=N)N)NC(=O)[C@H](Cc2ccc(O)cc2)NC(=O)[C@H](Cc2ccc(O)cc2)NC1=O ({CH2CO}-YHIYYRILYGSLGCG-NH2; thioether N-14)", "=", 6.3),
    ("CC[C@H](C)[C@@H]1NC(=O)[C@H](Cc2c[nH]c3ccccc23)NC(=O)[C@H](C)NC(=O)[C@H](CC(=O)O)NC(=O)[C@H](Cc2ccccc2)NC(=O)[C@H](Cc2c[nH]cn2)NC(=O)[C@H](Cc2ccc(O)cc2)NC(=O)CSC[C@@H](C(=O)NCC(N)=O)NC(=O)[C@H](CCC(N)=O)NC(=O)[C@H](CC(C)C)NC(=O)[C@H](CC(C)C)NC(=O)[C@H]([C@@H](C)O)NC(=O)[C@H](C)NC1=O ({CH2CO}-YHFDAWIATLLQCG-NH2; thioether N-13)", ">", 30000),
    ("CC(C)C[C@@H]1NC(=O)[C@H](CCC(=O)O)NC(=O)CNC(=O)[C@H](Cc2ccc(O)cc2)NC(=O)[C@H](CC(C)C)NC(=O)[C@H](Cc2ccccc2)NC(=O)[C@H](CCCNC(=N)N)NC(=O)[C@H](Cc2ccc(O)cc2)NC(=O)[C@H](Cc2ccc(O)cc2)NC(=O)[C@H](Cc2c[nH]cn2)NC(=O)[C@H](Cc2c[nH]cn2)NC(=O)[C@H](Cc2ccc(O)cc2)NC(=O)CSC[C@@H](C(=O)NCC(N)=O)NC(=O)CNC1=O ({CH2CO}-YHHYYRFLYGELGCG-NH2; thioether N-14)", "=", 1670),
]
